# method summary: inhibitors of Bluetongue virus cytopathic effect, confirmation, arbovirus, BSR cells (AID 1250)
# measurement parameters: BSR cells, Bluetongue virus CPE, ATP luminescence, 72 h; at 20 µM (top of the series)
attribute measured: CPE inhibition (%)
Number in %, nothing else.

[in] Supply reported CPE inhibition belonging to this compound: `CS(=O)(=O)C1=NSC2=NC(=O)/C(=C\c3cccn3-c3ccccc3Cl)C(=N)N21`
[out] 8.16

[in] Supply reported CPE inhibition belonging to this compound: `O=C/C(=C\Nc1ccc(Cl)cn1)c1nc2cc(Cl)ccc2o1`
[out] 10.2

[in] Supply reported CPE inhibition belonging to this compound: `O=C(CSCc1ccc(Cl)cc1)Nc1cccc(C(=O)Nc2ccccc2C(=O)O)c1`
[out] 23.5

[in] Supply reported CPE inhibition belonging to this compound: `C=CCSc1nnc(NC(=O)CSc2nc3ccccc3o2)s1`
[out] 21.8

[in] Supply reported CPE inhibition belonging to this compound: `O=C(Nc1sc2c(c1C(=O)O)CCC2)c1cccs1`
[out] 14.7

[in] Supply reported CPE inhibition belonging to this compound: `COC(=O)c1ccccc1NC(=O)C1CCN(C(=O)c2cc(OC)c(OC)c(OC)c2)CC1`
[out] 1.96

[in] Supply reported CPE inhibition belonging to this compound: CCOC(=O)C(NC(=O)c1cccc(Cl)c1)(OCc1ccc(F)cc1)C(F)(F)F (stereo not drawn)
[out] -3.2

[in] Supply reported CPE inhibition belonging to this compound: `COCCn1c(-c2ccccc2Cl)nc2c(c(=O)c3ccccc3n2C)c1=O`
[out] 4.39

[in] Supply reported CPE inhibition belonging to this compound: `CN1CCN(C(=S)NC(=O)c2ccc(Cl)cc2)CC1`
[out] 29.2

[in] Supply reported CPE inhibition belonging to this compound: `c1coc(CNc2c3c(nc4ncnn24)CCCC3)c1`
[out] 13.4

[in] Supply reported CPE inhibition belonging to this compound: COc1cc2c(cc1NC(=O)CC1SC(N3CCCC3)=NC1=O)oc1ccccc12 (stereo not drawn)
[out] 13.7

[in] Supply reported CPE inhibition belonging to this compound: `Cc1nc(CNS(=O)(=O)c2cccnc2)cs1`
[out] 4.68

[in] Supply reported CPE inhibition belonging to this compound: CC1=C(C(=O)OC2CCCCCCC2)C(c2cccc(O)c2)NC(=O)N1 (stereo not drawn)
[out] 7

[in] Supply reported CPE inhibition belonging to this compound: `CCOc1ccc(-n2c(=O)[nH]c3sc4c(c3c2=O)CCCC4)cc1`
[out] 16.6

[in] Supply reported CPE inhibition belonging to this compound: `CCOC(=O)c1c(-c2ccccc2)csc1NC(=S)N(CC)CC`
[out] 10.8

[in] Supply reported CPE inhibition belonging to this compound: `Cc1cccc(CSc2nn3c(=O)c(C)nnc3s2)c1`
[out] 19.1

[in] Supply reported CPE inhibition belonging to this compound: Cc1ccc2nc(NC(=O)C3CCCN(S(=O)(=O)c4cnc[nH]4)C3)sc2c1 (stereo not drawn)
[out] 22.3

[in] Supply reported CPE inhibition belonging to this compound: CC1CCCN(C(=O)c2cccc(S(=O)(=O)Nc3cc(C(F)(F)F)ccc3Cl)c2)C1 (stereo not drawn)
[out] 28.2

[in] Supply reported CPE inhibition belonging to this compound: `COc1ccc(-c2noc(-c3cc(C)cc(C)c3)n2)cc1OC`
[out] 10

[in] Supply reported CPE inhibition belonging to this compound: `O=C1c2ccccc2N2C(=O)c3ccccc3[C@H]2N1c1ccccc1`
[out] 2.15

[in] Supply reported CPE inhibition belonging to this compound: `COc1ccc(NS(=O)(=O)c2cc(NC(=O)/C=C/c3cccs3)ccc2N2CCOCC2)cc1`
[out] 18.4

[in] Supply reported CPE inhibition belonging to this compound: `CC(C)S(=O)(=O)C1=NSC2=NC(=O)/C(=C\c3ccc(-c4cccc(C(=O)O)c4)o3)C(=N)N21`
[out] 24.2

[in] Supply reported CPE inhibition belonging to this compound: `CCc1ccc(N2CCN(C(=O)c3ccc(OC)c(OC)c3)CC2)cc1`
[out] 7.4

[in] Supply reported CPE inhibition belonging to this compound: `CCCC(=O)Oc1ccccc1C1SCc2cc(C)c(C)cc2CS1`
[out] 6.38

[in] Supply reported CPE inhibition belonging to this compound: `Cc1cc(/C=C2/C(=N)N3C(=NC2=O)SN=C3S(C)(=O)=O)c(C)n1-c1ccc(F)cc1`
[out] 20.6

[in] Supply reported CPE inhibition belonging to this compound: Cc1ccc(C(=O)Nc2ccccc2SCC2CSc3nc4ccccc4c(=O)n32)cc1 (stereo not drawn)
[out] 14.6

[in] Supply reported CPE inhibition belonging to this compound: `O=c1[nH]c(SCc2ccccc2)nnc1-c1ccccc1`
[out] 3.2

[in] Supply reported CPE inhibition belonging to this compound: `CCOC(=O)C1(Cc2cccc(OC)c2)CCN(Cc2cccc(OC)c2O)CC1`
[out] 24.8

[in] Supply reported CPE inhibition belonging to this compound: `O=C1CN(C(=O)/C=C/c2ccc(Cl)cc2)c2ccccc2N1`
[out] 7.62

[in] Supply reported CPE inhibition belonging to this compound: `N#Cc1c(SCc2cccc(Cl)c2)sc(C(=O)c2ccccc2)c1N`
[out] 25.2

[in] Supply reported CPE inhibition belonging to this compound: `CCCCCCc1cc2cc(C(=O)Nc3ccc(OC)cc3)c(=O)oc2cc1O`
[out] -3.41

[in] Supply reported CPE inhibition belonging to this compound: `COC(=O)[C@H](Cc1ccccc1)NC(=O)O[C@@H]1C(=O)c2cc(OC)ccc2O[C@H]1c1ccc(OC)c(Br)c1`
[out] 13.7

[in] Supply reported CPE inhibition belonging to this compound: CCCCCCCCCCCC(=O)NC(C(=O)O)C(O)c1ccccc1 (stereo not drawn)
[out] 11.5

[in] Supply reported CPE inhibition belonging to this compound: `CCCn1c(N)c(C(=O)CSc2nc3ccccc3c(=O)n2-c2ccc(OC)cc2)c(=O)[nH]c1=O`
[out] 1.41

[in] Supply reported CPE inhibition belonging to this compound: `C#CCNC(=O)C1=C[C@H](c2cn(C(C)=O)c3ccccc23)C[C@H](OCc2ccc(CO)cc2)O1`
[out] -0.3

[in] Supply reported CPE inhibition belonging to this compound: `CCOC(=O)N1CCC(Nc2c(Nc3cccc(CC)c3)c(=O)c2=O)CC1`
[out] 9.52

[in] Supply reported CPE inhibition belonging to this compound: `O=C(O)c1ccccc1CSc1ccccn1`
[out] 2.46

[in] Supply reported CPE inhibition belonging to this compound: `Cc1ccc(NC(=O)/C(=C/C=C/c2ccccc2)NC(=O)c2ccccc2)cc1`
[out] 19.4

[in] Supply reported CPE inhibition belonging to this compound: CC1CC(C)(C)CC2(C1)NC(=O)N(CC(=O)NCCc1c[nH]c3ccccc13)C2=O (stereo not drawn)
[out] 23.6

[in] Supply reported CPE inhibition belonging to this compound: `COc1ccc(-c2csc(Nc3ncccc3C)n2)cc1OC`
[out] 14.9

[in] Supply reported CPE inhibition belonging to this compound: `CSc1ccccc1NC(=O)CO/N=C(\C)c1cc2ccccc2o1`
[out] 12.9

[in] Supply reported CPE inhibition belonging to this compound: `Cc1cc(F)ccc1S(=O)(=O)Nc1ncnc2scc(-c3ccc(F)cc3)c12`
[out] 21.7

[in] Supply reported CPE inhibition belonging to this compound: `CNc1ccccc1C(C)(C)c1cc(-c2cccc(OC)c2)no1`
[out] 7.83
